test method notes: yeast display, Sf9 membrane polyspecificity reagent, FACS + sequencing; frameworks hold sequencing errors
recorded endpoint: polyreactivity (PSR sort gate)

{"macromolecule sequence": "QVQLVESGGGLVQAGGSLRLSCAASGSTFHRYAMGWYRQAPGKERELVAAITSSGDITYYADSVKGRFTISRDNAKNTVYLQMNSLKPEDTAVYYCNADGFYSWLYDYWGQGTQVTVSS", "obs value": "low polyreactivity"}
{"macromolecule sequence": "QVQLVESCGGLVQAGGSLRLSCAASGFTFTWNAMGWYRQAPGKERELVAGITRGGSTNYADSVKGRFTISRDNAKNTVYLQMNSLKPEDTAVYYCNVSFYFHHAGYDYWGQGTQVTVSS", "obs value": "low polyreactivity"}
{"macromolecule sequence": "QVQLVESGGGLVQAGGSLRLSCAASGSIFRYYAMGWYRQAPGKEREFVAAINTNDAGTYYADSVKGRFTISRDYAKNTVYLQMNSLKPEDTAVYYCAADTGYRFWYDYWGQGTQVTVSS", "obs value": "high polyreactivity"}
{"macromolecule sequence": "QVQLVESGGGLVQAGGSLRLSCAASGRIFLYNAMGWYRQAPGKERELVAAITASGGTTYYADSVKGRFTISRDNAKNTVYLQMNSLKPEDNAVYYCNAYSYSGERYYWGQGTQVTVSS", "obs value": "high polyreactivity"}
{"macromolecule sequence": "QVQLVESGGGLVQAGGSLRLSCAASGRTFVSNAMGWYRQAPGKERELVAVITGIGGNTYYADSVKGRFTISRDNAKTTVYLQMYSLKPEDTAVYYCAADQIYSFYPVYGSWIYSMYYWGQGTQVTVSS", "obs value": "low polyreactivity"}
{"macromolecule sequence": "QVQLVESGGGLVQAGGSLRLSCAASGSIFGTYAMGWYRQAPGKERELVATISYGDGSTYYADSVKGRFTISRDNAKNTVYLQMNSLKPEDTAVYYCNTGVYSSGGPLDYWGQGTQVTVSS", "obs value": "low polyreactivity"}
{"macromolecule sequence": "QDQLVESGGGLVQAGGSLRLSCAASGLIFYDNLGWYRQAPGKERELVAAISSSGGSTSYADSVKGRFTISRDNAKNTVYLQMNSLKPEDTAVYYCAADSYPAYLGFVGFDYWGQGTQVTVSS", "obs value": "low polyreactivity"}
{"macromolecule sequence": "QVQLVESGGGLVQAGGSLRLSCAASGFTFTYYAMGWNRQEPGKERELVAAISGNGGSTYYADSVKGRFTISRDNAKNTVYLQMNRLKPEDTAVYYCNALPTSVGRWYRGDYWGQGTLVTVSS", "obs value": "high polyreactivity"}

Okay, next one:
Q: Consider the sequence shown here: "QVQLVESGGGLDQAGGSLRLTCAATGRIILGYAMGWYRQAPGKEREFVAANSRGGTSTYYADSVKGRFTISRDNAKNTVYLQMNSLKPEDTAVYYCAVDVPPYRLVRNYYEYDYWGQGTQVTVSS" What is its recorded polyreactivity (PSR sort gate)?
Ans: high polyreactivity

----------
test method notes: yeast display, Sf9 membrane polyspecificity reagent, FACS + sequencing; frameworks hold sequencing errors

{"macromolecule sequence": "QVQLVESGGGLVQAGGSLRLSCAASGRTFSRYAMGWYRPAPGKERELVAAISWRGSSTYYADSVKGRFTISRDNAKNTVYLQMNSLKPEYTAVYYCNTVTYPYVPALFDYWGQGTQVTVSS", "polyreactivity (PSR sort gate)": "high polyreactivity"}
{"macromolecule sequence": "QVQLVESGGGLVQAGGSLRLSCAASGFTFYTYVKGWYRQAPGKERELVAAITSGVSTNYADSVKGRFTISRDNAKNTVYLQMNSVKPEDTAVYYFNKTFLFLEYDSWGQGTQVTVSS", "polyreactivity (PSR sort gate)": "low polyreactivity"}
{"macromolecule sequence": "QVHLVESGGGLVQAGGSLRLSCAASGNIFTINAMGWYRQAPGKERDLVARITWGGGNTFYADSVKGRFTISRDNAKNTVYLEMNSLKPEDTAVYYCNAVGPYDYRYGKYDYWGQGTQVTVSS", "polyreactivity (PSR sort gate)": "low polyreactivity"}
{"macromolecule sequence": "QVQLVESGGGLVQAGGSLRLSCAASGLTFASYAMGWYRQAPGKERDLVARISRSGGSTYYADSVKGRFTISRDNAKNTVYLQMNSLKPEDTAVYYCAADYIFRRYPVGGIYDYDYWGQGTQVTVSS", "polyreactivity (PSR sort gate)": "high polyreactivity"}
